I'd be grateful if you could share measured ELISA reading for these entries.
- target_of_assay: T1, soluble KDR extracellular domain (ECD) (Calbiochem) (human, UniProt P35968 20-764)
- T1 construct: extracellular domain; Bought protein; also called KDR-ECD; VEGF Receptor 2 D1-7, Cat. #676490
- assay_overview: Limited Antigen ELISA, KDR coat 6.25 ng/mL, supernatant 1:25
Numbers only.

Answered cases to consult:
{"binder": "30F6 (antibody, V domains shown, Fully human mAb from XenoMouse hybridoma, tested as hybridoma supernatant) VH: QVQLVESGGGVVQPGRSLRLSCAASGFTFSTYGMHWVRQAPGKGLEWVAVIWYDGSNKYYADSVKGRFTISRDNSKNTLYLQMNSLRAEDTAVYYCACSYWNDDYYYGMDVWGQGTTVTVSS VL: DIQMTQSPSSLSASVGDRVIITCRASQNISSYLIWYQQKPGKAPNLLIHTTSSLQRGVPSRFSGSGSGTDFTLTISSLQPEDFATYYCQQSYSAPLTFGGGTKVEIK", "observed_result": 0.13}
{"binder": "21H9 (antibody, V domains shown, Fully human mAb from XenoMouse hybridoma, tested as hybridoma supernatant) VH: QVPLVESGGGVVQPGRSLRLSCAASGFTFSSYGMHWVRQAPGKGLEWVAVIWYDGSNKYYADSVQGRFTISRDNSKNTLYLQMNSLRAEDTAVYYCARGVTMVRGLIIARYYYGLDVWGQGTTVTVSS VL: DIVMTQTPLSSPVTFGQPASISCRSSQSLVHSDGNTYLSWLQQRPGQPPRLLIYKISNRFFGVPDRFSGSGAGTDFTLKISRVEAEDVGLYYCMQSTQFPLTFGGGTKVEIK", "observed_result": 0.39}

Q) Give recorded ELISA reading. 30D7 (antibody, V domains shown, Fully human mAb from XenoMouse hybridoma, tested as hybridoma supernatant) VH: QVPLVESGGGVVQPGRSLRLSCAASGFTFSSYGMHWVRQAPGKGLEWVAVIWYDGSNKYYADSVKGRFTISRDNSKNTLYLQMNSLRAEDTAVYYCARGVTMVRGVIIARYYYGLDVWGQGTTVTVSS VL: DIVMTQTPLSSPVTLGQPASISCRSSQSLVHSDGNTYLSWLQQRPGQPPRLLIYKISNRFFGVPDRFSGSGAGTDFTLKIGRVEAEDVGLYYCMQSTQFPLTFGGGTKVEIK
A) 0.48
